# Tested on: CD2F1 mice, L1210 leukemia ip, survival T/C
# measurementProtocol: NCI In Vivo Anticancer Drug Screen. Data for tumor model L1210 Leukemia (intraperitoneal) in CD2F1 (CDF1) mice
# testContext: endpoint: mean survival time; dose: 6.25 mg/kg/injection; schedule: Q04DX003 (ip); vehicle: saline with Tween-80; higher = longer survival
Toxic doses and inconclusive results are not listed.
The entries below come with measured T/C values attached.

See these solved cases before continuing.
compound	targetUnderTest	T/C
C=CCOCC(O)C[As](=O)(O)c1ccc(OC)cc1 (centres undefined)	CD2F1 mice, L1210 leukemia ip, survival T/C	92 % of control
c1cc2c(cc1NC1=NCCO1)CCC2	CD2F1 mice, L1210 leukemia ip, survival T/C	103 % of control

Data request, read-out T/C, for "O=C1C=CC(=O)N1c1ccccc1[N+](=O)[O-]" 100 % of control

One more compound: "C1CC[N-]CC1.C1CC[N-]CC1.O=C(O)CC(=O)O.[Pt+2]" 97 % of control

###

# System: CD2F1 mice, L1210 leukemia ip, survival T/C
# measurementProtocol: NCI In Vivo Anticancer Drug Screen. Data for tumor model L1210 Leukemia (intraperitoneal) in CD2F1 (CDF1) mice
# testContext: endpoint: mean survival time; dose: 25.0 mg/kg/injection; schedule: Q01DX001 (ip); vehicle: saline with Tween-80; higher = longer survival
Inconclusive results and toxic doses are left out.
The entries below come with measured T/C values attached.

See these solved cases before continuing.
compound	experimentalEndpoint	recordedMeasurement
COc1cc(C)cc(N)n1	T/C	89 % of control
COc1cccc(CC2NCCc3c2[nH]c2ccccc32)c1 (stereo not given)	T/C	98 % of control
O=C(O)c1ccc(N/N=C/C(F)(F)F)cc1	T/C	94 % of control
NC1CCCCC(O)CCCC1 (stereo not given)	T/C	92 % of control

// lookup T/C | system=CD2F1 mice, L1210 leukemia ip, survival T/C | key= CCC(c1ccc(OC(=O)Cc2ccc(N(CCCl)CCCl)cc2)cc1)C(CC)c1ccc(OC(=O)Cc2ccc(N(CCCl)CCCl)cc2)cc1 (stereo not given) 94 % of control

###

# Test system: CD2F1 mice, L1210 leukemia ip, survival T/C
# measurementProtocol: NCI In Vivo Anticancer Drug Screen. Data for tumor model L1210 Leukemia (intraperitoneal) in CD2F1 (CDF1) mice
# testContext: endpoint: mean survival time; dose: 25.0 mg/kg/injection; schedule: Q01DX005 (ip); vehicle: other; higher = longer survival
Toxic doses and inconclusive results are not listed.
The entries below come with measured T/C values attached.

compound	T/C
Nc1nc(NNC(=O)c2ccccc2)c2nonc2n1	95 % of control
Cn1c(=O)c2c(nc(-c3ccccc3)n2O)n(C)c1=O	105 % of control

Data request, read-out T/C, for "Nc1ncnc2c1nnn2Cc1ccco1" 89 % of control

One more compound: CN1C(=O)C2C(N=C(c3ccccc3)N2O)N(C)C1=O (centres undefined) 93 % of control

###

The entries below come with measured T/C values attached.
# Test system: CD2F1 mice, L1210 leukemia ip, survival T/C
# measurementProtocol: NCI In Vivo Anticancer Drug Screen. Data for tumor model L1210 Leukemia (intraperitoneal) in CD2F1 (CDF1) mice
# testContext: endpoint: mean survival time; dose: 200.0 mg/kg/injection; schedule: Q01DX009 (ip); vehicle: Klucel (hydroxypropylcellulose) (HPC); higher = longer survival
Toxic doses and inconclusive results are not listed.

See these solved cases before continuing.
compound	recordedMeasurement
Cc1ccc(S(=O)(=O)N2CCC(=O)c3ccc(Cl)cc32)cc1	93 % of control
CCCCCCCCCCCCCCCCN(C)c1ccc(C(=O)OC)cc1[N+](=O)[O-]	101 % of control
COc1ccc(NC(=O)Nc2cccc(O)c2)c(Cl)c1	95 % of control
COc1ccc(NC(=O)Oc2cc(C)c(Cl)cc2C(C)C)c(Cl)c1	96 % of control

Data request, read-out T/C, for "CCCCN(CCCC)C(Cl)=Nc1ccccc1" 90 % of control

One more compound: O=C1NN=C2CCCCC12 (stereo unspecified) 96 % of control

###

# Test system: CD2F1 mice, L1210 leukemia ip, survival T/C
# measurementProtocol: NCI In Vivo Anticancer Drug Screen. Data for tumor model L1210 Leukemia (intraperitoneal) in CD2F1 (CDF1) mice
# testContext: endpoint: mean survival time; dose: 12.5 mg/kg/injection; schedule: Q04DX003 (ip); vehicle: saline
Toxic doses and inconclusive results are not listed. How the source made its calls: active means survival T/C of 150% or more; inactive means T/C below 125% in these data.
Allowed answers: active, inactive

Recorded test outcome, item "O=S(=O)(O)SNCCN1CCOCC1" inactive

One more compound: "ClCC(CCl)N1CCCCC1" inactive

One more compound: O=[N+]([O-])O.O=[N+]([O-])O.[NH-]C1CCCCC1[NH-].[Pt+2] (stereo not drawn) inactive

One more compound: O=C(O)C(O)C(O)C(O)C(O)CO.O=C(O)C(O)C(O)C(O)C(O)CO.[NH-]C1CCCCC1[NH-].[Pt+2] (stereo not drawn) active

One more compound: "CC1(C)CC[N+]1(C)C" inactive

One more compound: "NCCN1CCc2ccccc2C1" inactive

One more compound: "NC1CCCCC1.[O]=[Cr](=[O])([OH])[OH]" inactive

One more compound: CCCOP(=O)(N1CC1(C)C)N1CC1(C)C (stereo not drawn) inactive

###

# Test system: CD2F1 mice, L1210 leukemia ip, survival T/C
# measurementProtocol: NCI In Vivo Anticancer Drug Screen. Data for tumor model L1210 Leukemia (intraperitoneal) in CD2F1 (CDF1) mice
# testContext: endpoint: mean survival time; dose: 100.0 mg/kg/injection; schedule: Q04DX003 (ip); vehicle: saline
Inconclusive results and toxic doses are left out. Rule for the calls: active = survival T/C of 150% or more; inactive = T/C below 125% in these data.
Allowed answers: active, inactive

Recorded results for 6 compounds are shown here.
compound	group
ICC12CCC1(CI)COC2 (stereo not given)	inactive
O=P(O)(O)CCc1ccccc1	inactive
CNC(=O)c1ccc[n+](CC(=O)NCc2ccccc2)c1	inactive
Cc1cc[n+](CCc2ccccc2)cc1	inactive
CCN(C(=O)C(F)(F)F)C(C)(C)C(SSSC(c1ccc(Cl)cc1)C(C)(C)N(CC)C(=O)C(F)(F)F)c1ccc(Cl)cc1 (stereo not given)	inactive
CCOC(=O)C(N)CSCc1ccccc1 (stereo not given)	inactive

Recorded test outcome, item COC12CCCC1S(=O)(=O)C2 (stereo not given) inactive

One more compound: "O=C(Nc1ccc(Cl)c(Cl)c1)OCC#CCOC(=O)Nc1ccc(Cl)c(Cl)c1" inactive

###

# Tested on: CD2F1 mice, L1210 leukemia ip, survival T/C
# measurementProtocol: NCI In Vivo Anticancer Drug Screen. Data for tumor model L1210 Leukemia (intraperitoneal) in CD2F1 (CDF1) mice
# testContext: endpoint: mean survival time; dose: 400.0 mg/kg/injection; schedule: Q01DX009 (ip); vehicle: Klucel (hydroxypropylcellulose) (HPC)
Toxic doses and inconclusive results are not listed. The calls were made as follows: active = survival T/C of 150% or more; inactive = T/C below 125% in these data.
Allowed answers: TRUE = active, FALSE = inactive

Recorded results for 5 molecules are shown here.
molecule	group
COc1ccc(N=NN(C)C(=O)c2ccccc2)cc1	TRUE
Cc1cc(N(CCOS(C)(=O)=O)CCOS(C)(=O)=O)ccc1C=Nc1ccc(-c2nc(Cc3ccccc3)sc2C)cc1	FALSE
Clc1ccccc1N=Cc1ccc2c(c1)OCO2	FALSE
CC1OC(C)(C)OC1C(=O)OCc1ccccc1 (configuration not stated)	FALSE
Cc1ccc(S(=O)(=O)N/N=C/c2ccccc2)cc1	FALSE

Recorded test outcome, item CCOC(=O)C1C2OC(=O)C(C(=O)C2CN(CCCl)CCCl)C1C1CC=C(CC2=CCC(C3C4C(=O)OC(C(CN(CCCl)CCCl)C4=O)C3C(=O)OCC)CC2)CC1 (configuration not stated) FALSE

One more molecule: "O=C(N/N=C/c1ccccc1O)c1ccccc1" FALSE

###

# Test system: CD2F1 mice, L1210 leukemia ip, survival T/C
# measurementProtocol: NCI In Vivo Anticancer Drug Screen. Data for tumor model L1210 Leukemia (intraperitoneal) in CD2F1 (CDF1) mice
# testContext: endpoint: mean survival time; dose: 400.0 mg/kg/injection; schedule: Q04DX002 (ip); vehicle: saline with Tween-80; higher = longer survival
Inconclusive results and toxic doses are left out.
The entries below come with measured T/C values attached.

molecule	recordedMeasurement
O=C(Nc1cccc(I)c1)OCCCl	92 % of control
COc1ccccc1NC(=O)OCC(Cl)(Cl)Cl	95 % of control
COC(=O)C(Cc1[nH]c(N=Nc2ccc(Br)cc2)nc1N=Nc1ccc(Br)cc1)NC(C)=O (stereo not drawn)	96 % of control

Data request, read-out T/C, for "O=C([O-])[O-].O=S(=O)(O)O.[Co+3].[NH2-].[NH2-].[NH2-].[NH2-]" 107 % of control

One more molecule: "O=C=NC(=O)c1ccccc1" 118 % of control

One more molecule: O=C(O)C1=CCCC(O)CC1 (stereo not drawn) 103 % of control

One more molecule: "O=C(COc1ccc(Cl)cc1)Oc1c(Cl)cc(Cl)cc1Cl" 94 % of control

One more molecule: C/C(=N\NC(N)=S)C1=C(O)C(Cc2ccccc2)NC1=O (stereo not drawn) 100 % of control

One more molecule: O=C1OC2C(Cl)CC(Cl)CC2C=C1c1cccc([N+](=O)[O-])c1 (stereo not drawn) 94 % of control

One more molecule: "CCC(=O)OCc1cc2ccccc2c(-c2c(O)c(CN3CCOCC3)cc3ccccc23)c1O" 91 % of control

One more molecule: "COc1ccc(-n2cnc3c(=O)[nH]cnc32)cc1" 86 % of control

One more molecule: "CCCCCCCCCCCCCCCC(=O)Nc1c(C)cc(C)cc1C" 91 % of control

One more molecule: COc1ccc2c(c1)CCC1C(=O)NN=C21 (stereo not drawn) 103 % of control

One more molecule: CC(CO)CCC(=O)C(C)C1C2(CC3C4CCC5CC(O)CCC5(C)C4CCC31C)SCCS2 (stereo not drawn) 92 % of control

One more molecule: "Nc1nc2c(ncn2CCCCc2ccccc2)c(=O)[nH]1" 94 % of control
